# Test system: 186277-243-T-J2-PDC complex spheroid viability;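 note: spheroids exposed to compounds for seven days; 100% = DMSO vehicle control viability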
# assayExplanation: Anticancer human tumor 186277-243-T-J2-PDC patient-derived colon adenocarcinoma cell line growth inhibition [POLQ]
# reportedConditions: second compound 1 µM; first compound 0.0316 µM; active compounds read low
Task for the reader: assign each of the following compounds its reported viability, T/C.
Give just the number in %; leave the unit off.

// recorded viability, T/C for O=C(Nc1ccc(O)c(NS(=O)(=O)c2ccc(F)cc2)c1)c1ccc(-c2ccccc2)cc1 + Nc1ccc(C#CCN(C(=O)Cc2ncc(C(F)(F)F)cc2C(F)(F)F)c2ccc(F)cc2)nn1 : 101

// recorded viability, T/C for O=C(Nc1ccc(O)c(NS(=O)(=O)c2ccc(F)cc2)c1)c1ccc(-c2ccccc2)cc1 + Cc1cccc(N(C)C(=O)C2C(O)CCN2c2nc(C)cc(C(F)(F)F)c2C#N)c1 : 95

// recorded viability, T/C for CCc1cc2c(N3CCc4c(cc(Cn5ccnc5)cc4-c4cn(C)nc4C(F)(F)F)C3=O)cc(C)nc2c(OC)n1 + Nc1ccc(C#CCN(C(=O)Cc2ncc(C(F)(F)F)cc2C(F)(F)F)c2ccc(F)cc2)nn1 : 95.1

// recorded viability, T/C for CC[C@@]1(O)C(=O)OCc2c1cc1n(c2=O)Cc2cc3c(CN(C)C)c(O)ccc3nc2-1 + COC1C(OC(N)=O)C(O)C(Oc2ccc3c(O)c(NC(=O)c4ccc(O)c(CC=C(C)C)c4)c(=O)oc3c2C)OC1(C)C : 57
